# experimental.system: GABAA receptor complex, benzodiazepine modulatory unit (cerebral cortex membranes)
# measurement.description: In vitro inhibition of 3H-flunitrazepam (3H-FNM) binding
# Design: species or system rat
# condition.description: inhibition of specific binding of 3H-FNM (1 nM), cerebral cortex membranes of male Wistar rats, 40 min at 2° C.
# Description: In vitro Inhibition of ^3H-flunitrazepam (^3H-FNM) Binding […] the benzodiazepine modulatory unit can selectively be labelled with ^3H-flunitrazepam. Preparations are performed at 0-4° C. unless otherwise indicated. […] The membrane preparation is thawed and centrifuged at 2° C. for 10 min at 27,000×g. […] Non-specific binding is determined using Clonazepam (1 μM, final concentration). […]
pIC50: −log10 of the molar value.
result.type: pIC50

compound	test.result
N=C(NO)c1ccc2c(c1)ncn2-c1cccc(-c2ccccc2Cl)c1 [Compound 12ha]	9.02
C[C@@H](O)c1ccc2c(c1)ncn2-c1cccc(-c2cccnc2F)c1	8.21

[I] COc1cc(F)ccc1-c1cccc(-n2cnc3cc(C(F)(F)F)ccc32)c1
[II] COc1ccccc1-c1cccc(-n2cnc3cc(-c4cc[nH]n4)ccc32)c1
[III] CC(C)(O)c1ccc2c(c1)ncn2-c1cccc(-c2cccnc2F)c1
[IV] CC(C)(O)c1ccc2c(c1)ncn2-c1cccc(-c2ccccc2C#N)c1
Q. Ascending sort, pIC50. Put the labels in the requested order and write them down.
A. II, III, I, IV
(II: 7.68, III: 8.40, I: 8.85, IV: 9.19)
